assay system: Endonuclease III-like protein 1 (Homo sapiens);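 also: enzyme assay tracking NTHL1 cutting and release of a quenched double-stranded DNA oligo substrate, read as fluorescence at 594 nm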
test context: Compound Concentration 10.0 uM, Hit No
Give measured inhibition for each item. Keep answers brief.
Give bare numbers, in %.

{"compound": "N=C(N)NCCC[C@H](NC(=O)COCC(c1ccccc1)c1ccccc1)C(=O)O", "inhibition [%]": 9.99}

Parameter requested: inhibition. Apply to each item below.
1. CC(C)(C)NC[C@H](O)COc1nsnc1N1CCOCC1
2. CSc1ccc(C(=O)/C=C/c2cc(C)c(OC(C)(C)C(=O)O)c(C)c2)cc1
3. Cn1c(=O)n(CCCO)c(=O)c2c1nc(Oc1cccc(OC(F)(F)F)c1)n2Cc1ccc(Cl)cc1
4. O=C(O)CCc1ccc(NCc2cccc(Oc3ccccc3)c2)cc1

[-8.34, 2, 8.82, -4.39]

###

For each record, write down the corresponding inhibition.
assay system: Single-strand selective monofunctional uracil DNA glycosylase (Homo sapiens) (UniProt Q53HV7);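 also: enzymatic SMUG1 assay coupled with APE1, reading fluorescence at 594 nm released when a quenched double-stranded DNA oligonucleotide substrate is cleaved and separated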
Sequence (Q53HV7 whole entry): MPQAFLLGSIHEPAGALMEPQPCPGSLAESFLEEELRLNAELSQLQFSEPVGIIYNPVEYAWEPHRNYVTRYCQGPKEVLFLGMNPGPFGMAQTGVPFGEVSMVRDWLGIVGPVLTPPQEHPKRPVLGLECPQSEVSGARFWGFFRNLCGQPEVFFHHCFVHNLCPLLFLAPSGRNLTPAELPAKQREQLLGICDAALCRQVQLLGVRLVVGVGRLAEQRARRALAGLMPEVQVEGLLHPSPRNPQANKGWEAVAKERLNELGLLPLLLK
test context: Compound Concentration 10.0 uM, Hit No
Give bare numbers, in %.

Check out these entries, answers already filled in.
{"molecule": "CN1[C@@H](CC(=O)c2ccccc2)CCC[C@H]1C[C@H](O)c1ccccc1", "inhibition / %": 1.46}
{"molecule": "COc1ccc2[nH]c(I)c(CCNC(C)=O)c2c1", "inhibition / %": -7.64}
{"molecule": "CCOc1cc(N2CCC(O)CC2)ccc1Nc1ncc2c(n1)N(C)c1ccccc1C(=O)N2C", "inhibition / %": 19.5}
{"molecule": "CC(C)C(=O)Nc1n[nH]c2cc(-c3cccc(NS(=O)(=O)C4CC4)c3)ccc12", "inhibition / %": 13.9}
{"molecule": "CN1C2CCCC1CC(Nc1ccccc1Br)C2 (stereo unspecified)", "inhibition / %": -9}

Respectfully, I request inhibition for each entry included below.
1. COC(=O)c1sccc1S(=O)(=O)Nc1ccc(Nc2ccccc2)cc1OC
2. CC(C)c1noc(N2CCC(COc3ccc(-c4ccc(S(C)(=O)=O)cc4)nc3)CC2)n1

18.2
-6.43

Each molecule below has a recorded value; state its inhibition.
1. O=C1NCN(c2ccccc2)C12CCN(CC1COc3ccccc3O1)CC2 (stereo unspecified)
2. CCCn1c(=O)c2[nH]c(-c3cnn(Cc4cccc(C(F)(F)F)c4)c3)nc2n(CC)c1=O
3. C[C@@H](NCCCc1cccc(C(F)(F)F)c1)c1cccc2ccccc12
4. NCCc1c[nH]cn1

1. 1.76
2. 4.62
3. 8.59
4. -0.0333

I would be grateful if you could provide inhibition for each of the following entries.
1. COc1ccccc1/C=N/NC(=O)COc1ccc(Cl)cc1C
2. CS(=O)(=O)c1cccc(NC(=O)N(Cc2ccc(C(=O)Nc3nnn[nH]3)cc2)c2ccc(C3CCCCC3)cc2)c1
3. Nc1ccc(C(=O)Nc2cccc(-c3nc(N4CCOCC4)c4oc5ncccc5c4n3)c2)cn1
4. Cc1ccc(S(=O)(=O)Nc2ccc(-n3nc(C(F)(F)F)cc3C(F)(F)F)cc2)cc1
5. C[C@@H]1CN(c2cc(-c3n[nH]c4ccc(OC5(C)CC5)cc34)ncn2)C[C@H](C)O1

1. 14
2. 6.31
3. 9.56
4. 19.1
5. 18

Hey, can you go through the list below and give me inhibition for every item?
1. O=C(NNS(=O)(=O)c1ccccc1)c1cc(-c2ccnnc2)ccc1F
2. CC1=C2C[C@H]3[C@@H](CC=C4C[C@@H](O)CC[C@@]43C)[C@@H]2CC[C@]12O[C@@H]1C[C@H](C)CN[C@H]1[C@H]2C
3. O=C1CC[C@@]2(O)[C@H]3Cc4ccc(O)c5c4[C@@]2(CCN3CC2CC2)[C@H]1O5
4. O=C(O)c1ccc(S(=O)(=O)N(Cc2ccc(OC(F)(F)F)cc2)c2ncc(C(F)(F)F)cc2Cl)cc1
5. COc1ccc(NS(=O)(=O)c2sc3ccc(Cl)cc3c2C)cc1N1CCNCC1

13.8
2.68
-9.51
2.42
12

Record inhibition for all entries; do not skip any.
1. OCCN1CCN(CCCN2c3ccccc3Sc3ccc(Cl)cc32)CC1
2. Clc1ccccc1C(c1ccccc1)(c1ccccc1)n1cccn1
3. O=C(Nc1ccc(S(=O)(=O)Nc2nccs2)cc1)C(c1ccccc1)c1ccccc1

1: -0.808; 2: -6.62; 3: 7.67

Quick request: inhibition for each listed item, please.
1. Cc1ccccc1C(=O)Nc1ccc(C(=O)N2CCCC(O)c3cc(Cl)ccc32)c(C)c1 (stereo unspecified)
2. CN1CCC[C@H]1c1cccnc1
3. CN1CCC(c2c[nH]c3ccc(O)cc23)CC1
4. COc1cc(-c2cn[nH]c2)ccc1C(=O)Nc1ccc2c(c1)CCNCC2
5. Cc1nc2ccc(Oc3ccc(F)cc3)cc2c(=O)n1C[C@H]1CCCN(C(C)C)C1
6. COc1cc(OC)c(NC(=O)Nc2cc(C)on2)cc1Cl
7. c1ccc2c(c1)CCC[C@H]2Nc1nc2ccccc2[nH]1
8. COc1cc2nc(N3CCN(C(=O)COc4c(OC)cccc4C(C)C)CC3)nc(N)c2cc1OC

-8.66
-4.08
-3.74
20.2
-4.48
-8.83
-5.61
-5.21

Please state, for each entry, its recorded inhibition.
1. O=C(N[C@@H]1C2CCN(CC2)[C@H]1Cc1cccnc1)c1cc2ccccc2o1
2. O=C1C[C@@H]2OCC=C3CN4CC[C@]56c7ccccc7N1[C@H]5[C@H]2[C@H]3C[C@H]46
3. O=C1N/C(=N/c2ccccc2F)S/C1=C\c1ccc(C(=O)O)cc1
4. Cn1ncnc1COc1nn2c(-c3cc(F)ccc3F)nnc2cc1C(C)(C)C
5. COCCn1c(C)c(C)s/c1=N\C(=O)C1C(C)(C)C1(C)C
6. O=C(NCc1ccccc1)c1ccc(S(=O)(=O)NCc2ccccc2)cc1
7. COc1ccc(-c2ccc3cc(C(=O)O)ccc3c2)cc1C12CC3CC(CC(C3)C1)C2
8. CCCCc1nc2ccc(NC(=O)NC3CCCCC3)cc2n1Cc1ccc(-c2ccccc2C(=O)O)cc1

1: -7.47; 2: -0.692; 3: -0.227; 4: -5.72; 5: -0.421; 6: 24.3; 7: 7.63; 8: -6.72

Bench note: what inhibition did Cc1nc(C2CCN(C(=O)c3ccc(OC(F)(F)F)cc3N)CC2)c2ncc(N3CCN(C)CC3)cc2n1 show?
17.5

###

assay system: N-glycosylase/DNA lyase (Homo sapiens) (UniProt O15527)
Sequence (O15527 whole entry): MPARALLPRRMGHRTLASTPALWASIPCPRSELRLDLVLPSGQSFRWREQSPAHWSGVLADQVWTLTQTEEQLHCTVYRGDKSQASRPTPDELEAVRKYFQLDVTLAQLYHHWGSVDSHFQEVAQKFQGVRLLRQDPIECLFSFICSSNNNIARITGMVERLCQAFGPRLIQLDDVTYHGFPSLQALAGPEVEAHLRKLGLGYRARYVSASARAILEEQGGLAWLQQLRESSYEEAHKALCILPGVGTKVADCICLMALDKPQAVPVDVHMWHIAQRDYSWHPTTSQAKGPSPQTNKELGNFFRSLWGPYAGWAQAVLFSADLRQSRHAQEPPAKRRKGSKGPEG
test context: Compound Concentration 10.0 uM, Hit No
measured quantity: inhibition (%)
Numbers only, in %.

{"compound": "COc1cc(F)ccc1-c1ncnc(Nc2cccc(C[S@](C)(=N)=O)c2)n1", "inhibition / %": 9.82}

Hi! Can you tell me inhibition for each of these compounds?
1. O=C(N[C@H](Cc1ccc(Cl)cc1)C(=O)N1CCC(Cn2cncn2)(C2CCCCC2)CC1)[C@H]1Cc2ccccc2CN1
2. Cc1ccc(F)cc1C(=O)Nc1ccc(C(=O)N2Cc3cccn3Cc3ccccc32)c(Cl)c1
3. COC(=O)/C=C/c1cccc(N(Cc2ccc(-c3ccc(N(C)C)cc3)cc2)C(=O)C2CCCCC2)c1
4. CC(=O)Nc1c(C(C)=O)c(=O)n(C)c2nc(-c3ccc(Cl)cc3Cl)c(-c3ccc(Cl)cc3)cc12
5. CC(C1CC2CCC1C2)n1c(S)nnc1-c1ccco1 (stereo not given)
6. Cc1nc(C(=O)N2CCC[C@H]2Cc2nnc(-c3ccccc3)o2)c(-c2ccccc2F)s1
7. N#CC1(c2ccccn2)CCN(Cc2cc(C(=O)O)c(=O)n3ccccc23)CC1

6.85
-6.45
7.66
2.2
-7.6
-0.535
-3.75

Record inhibition for all entries; do not skip any.
1. COc1ccc(C2(O)OC(=O)C(c3ccc4c(c3)OCO4)=C2Cc2cc(OC)c(OC)c(OC)c2)cc1 (stereo not given)
2. O=C(O)c1n[nH]c2c1C[C@H]1C[C@@H]21
3. CCC[C@H]1CNCc2c1[nH]c(=O)c(C#N)c2N1CCC2(CC1)CC2
4. C[C@]1(O)C[C@@H](c2nc(-c3ccc4ccc(-c5ccccc5)nc4c3)c3c(N)nccn32)C1

1: -9.68; 2: -1.41; 3: 2.34; 4: -7.95

# batch: return inhibition for each of the 5 compounds below
1. C=CC(=O)Nc1ccc2[nH]c(=O)n(C3CCN(C(=O)c4ccc(-c5nc6cc[nH]c(=O)c6cc5-c5ccccc5)cc4)CC3)c2c1
2. CCCc1c(OCCCOc2ccc(OCC(=O)O)cc2)ccc(C(C)=O)c1O
3. CN(C)c1ccnc2sc3c(=O)n(N4CCCCCC4)cnc3c12
4. CC[C@@H]1CN2C(=O)N(C)c3nc(-c4ccccc4)[nH]c3C2=N1
5. COc1cc(OC)cc(C(=O)NNC(=O)Nc2cccc3ccccc23)c1

1. 78.5
2. 64.5
3. 18.5
4. -8.56
5. 3.09

Provide inhibition for all items below, preserving their order.
1. CCOc1ccc(Cc2nc3cc(C(=O)N(CC)CC)ccc3n2CC2CCCCC2)cc1
2. Nc1c(C(=O)NCc2ccc(C(=O)NCCCC3CCCCC3)cc2)cnn1-c1ccccc1
3. Cc1nnc2n1-c1sc(CCC(=O)N3CCOCC3)cc1C(c1ccccc1Cl)=NC2

1: 9.81; 2: 19.8; 3: 0.211
